# TESTED SYSTEM: HIV-1 Env of isolate THRO.18 (HIV-1)
# ASSAY REMARKS: cell-based or functional assay
MEASURED ATTRIBUTE: IC50, pseudovirus neutralization (TZM-bl) (µg/mL)
Reply with just the number (in µg/mL).

[[record]]
binder = "1503_H05 (PG16) (TCN-119) (antibody, V domains shown) VH: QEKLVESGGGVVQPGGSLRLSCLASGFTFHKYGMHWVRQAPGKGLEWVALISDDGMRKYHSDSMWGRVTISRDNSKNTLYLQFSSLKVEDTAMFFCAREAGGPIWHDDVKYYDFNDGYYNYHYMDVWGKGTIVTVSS VL: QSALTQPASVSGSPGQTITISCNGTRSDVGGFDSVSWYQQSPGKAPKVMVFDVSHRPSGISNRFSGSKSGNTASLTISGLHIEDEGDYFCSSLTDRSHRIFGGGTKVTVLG"
data_value = 4.12

[[record]]
binder = "1469_M23 (PG16) (TCN-118) (antibody, V domains shown) VH: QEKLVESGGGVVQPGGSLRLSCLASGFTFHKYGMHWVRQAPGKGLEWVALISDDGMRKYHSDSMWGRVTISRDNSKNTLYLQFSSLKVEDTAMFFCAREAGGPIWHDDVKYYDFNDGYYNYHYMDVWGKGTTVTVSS VL: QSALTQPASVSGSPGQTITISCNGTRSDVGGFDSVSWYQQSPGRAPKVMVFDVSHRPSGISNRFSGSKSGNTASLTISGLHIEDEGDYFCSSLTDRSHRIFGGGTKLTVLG"
data_value = 7.01

[[record]]
binder = "1456_A12 (PG16) (TCN-117) (antibody, V domains shown) VH: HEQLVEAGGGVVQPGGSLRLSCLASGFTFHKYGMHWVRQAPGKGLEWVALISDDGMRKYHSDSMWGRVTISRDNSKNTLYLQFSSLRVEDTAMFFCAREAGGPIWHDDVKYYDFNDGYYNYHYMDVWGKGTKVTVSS VL: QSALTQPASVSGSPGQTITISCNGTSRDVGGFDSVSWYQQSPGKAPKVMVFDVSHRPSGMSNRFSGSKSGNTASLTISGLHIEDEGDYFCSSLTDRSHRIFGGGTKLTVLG"
data_value = 2.08


Alright, here's another binder for you.
Name the recorded IC50, pseudovirus neutralization (TZM-bl) of the item 1489_I13 (PG16) (TCN-120) (antibody, V domains shown) VH: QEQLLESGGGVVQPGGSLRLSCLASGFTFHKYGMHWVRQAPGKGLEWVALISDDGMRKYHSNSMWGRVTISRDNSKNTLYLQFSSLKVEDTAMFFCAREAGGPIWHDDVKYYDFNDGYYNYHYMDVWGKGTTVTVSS VL: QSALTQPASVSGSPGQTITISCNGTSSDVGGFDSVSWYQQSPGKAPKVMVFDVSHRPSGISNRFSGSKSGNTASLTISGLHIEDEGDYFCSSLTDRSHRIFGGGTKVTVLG in your answer. 7.41
